# credit: PubChem BioAssay

Reported values of inhibition for individual entries
test system: transactivating tegument protein VP16 (Human herpesvirus 1); experiment: VP16 transactivation reporter inhibitors, counter-screen for SRC2 inhibitor project, cell-based, luminescence, single concentration (AID 652007); details: cell-based VP16 transactivation luciferase reporter, at 8.9 µM, stronger effect = higher value

COMPOUND	UNITS SYMBOL	inhibition
Cc1c(/C(O)=C2/C(=O)C(=O)N(Cc3cccnc3)C2c2ccccn2)cnn1-c1ccccc1 (stereo not drawn)	%	11.9
O=C1N[C@@H](Cc2ccccc2)C(=O)N2[C@H]1CSCCS2(=O)=O	%	-5.16
CCCn1c(CC)nc([N+](=O)[O-])c1Sc1ccc(F)cc1	%	-3.5
Cc1cc(F)ccc1NC(=O)CCc1c(C)nn(-c2ccc(N3CCCCC3)nn2)c1C	%	-53
COc1ccc(-c2csc3ncnc(NCCO)c23)cc1	%	3.39
O=C(CCCN1C(=O)/C(=C/c2ccccc2Cl)SC1=S)NNC(=O)c1ccccc1Cl	%	80.7
CCOc1ccc(-n2nc3ccc(N)cc3n2)cc1	%	-14.3
COc1ccccc1C(=O)N(CCC1CCCN1C)c1nc2ccccc2s1 (stereo not drawn)	%	11.8
CCOC(=O)[C@H]1[C@H]2COc3ccc(Br)cc3[C@@H]2N2C(=O)CN(Cc3ccco3)C(=O)[C@@]12C	%	0.08
Cc1ccc(CC2C(=O)N(c3cc(C)ccc3C)C(=O)C2C)cc1 (stereo not drawn)	%	0.03
CCc1ccc(-c2nn(-c3ccccc3)cc2CSC(=N)N)cc1	%	-13.8
O=C(N/N=C/c1c(O)ccc2ccccc12)c1cccnc1	%	5.29
COCC(=O)OC1CCn2c1nc1c2C(=O)C(C)=C(NC(C)=O)C1=O (stereo not drawn)	%	57.3
COc1cc(C=CC(=O)c2cc(OC)c(OC)c(OC)c2)cc(OC)c1OC	%	47.7
Oc1cccc(C(Nc2nccs2)c2ccc3cccnc3c2O)c1 (stereo not drawn)	%	-15.2
CC1(C)Cc2c(ccc3ccccc23)C(=O)N1	%	-22.7
Cc1cc(C2=NNC(=NC3CC3)SC2)c(C)n1-c1ccccc1	%	83.2
O=C(O)CCC(=O)Nc1ccc(C(=O)OC2CCCCC2)cc1	%	11.1
CCOc1cc(/C=C2/NC(=O)N(Cc3ccccc3F)C2=O)ccc1O	%	4.78
O=C(CSc1nnc(-c2cccnc2)s1)Nc1ccnc2ccccc12	%	23.7
Cc1cccc(Nc2nc(N)nc(CCl)n2)c1C	%	14.2
O=C(O)C1(Nc2ccc(Br)cc2)CCCC1	%	-19.4
COc1ccc(C(=O)NC2CC3CCCC(C2)N3CC(C)C)cc1 (stereo not drawn)	%	2.31
C[N+]1(CC2COC3(CCCCC3)O2)CCCC1 (stereo not drawn)	%	-9.45
CCCCCc1ccc(-c2ccc(/C=C/C(=O)O)cc2)nc1	%	-23.1
CCn1c(Oc2ccccc2F)nc2c1c(=O)n(C)c(=O)n2C	%	-5.89
Cc1nc2c(O)c3c(c(O)c2nc1C)C1C=CC3CC1	%	75
COc1ccc(-c2nsc3c(N4CCCCC4C)ncnc23)cc1 (stereo not drawn)	%	83.1
CCC1CN(C(=O)NCc2cccc(OC)c2)c2ccccc2O1 (stereo not drawn)	%	-11.8
COc1cccc(NC(=O)N2CCc3nc(Nc4ccc(C(C)C)cc4)ncc3C2)c1	%	-73.3
CN(Cc1cc(Cl)cc(Cl)c1)CC(C(=O)c1ccccc1)c1ccccc1 (stereo not drawn)	%	25
CCCCCCCC/C=C\CCCCCCCC(=O)NCCc1ccc(O)c(O)c1	%	1.26
Cc1ccc(O)c(NC(=O)c2cc([N+](=O)[O-])ccc2Cl)c1	%	8.71
Cc1c(CCC(=O)N2CCC[C@H]2C(=O)O)c(=O)oc2c(C)c3oc4c(c3cc12)CCCC4	%	39
Cc1ccc(CN2CCC(C(=O)Nc3ccc(Oc4cccnc4)cc3)CC2)cc1	%	7.59
CCOc1ccc(-c2cc(CCCC(=O)NCCc3ccccc3)no2)cc1	%	6.55
COC(=O)c1cc(C(=O)OC)cc(S(=O)(=O)Nc2ccc(Cl)c(N)c2)c1	%	-6.46
COCCN(C(=O)CCl)C(C(=O)NC1CCCCC1)c1ccccc1C (stereo not drawn)	%	45.5
